assay: Quantitative High-Throughput drug screen in 47 multiple myeloma cell lines against the NCATS MIPE library collection: EJM_DSMZ cell viability assay (AID 1918926; further: nearly all actives have a fitted effect of over 30% in size); conditions: EJM myeloma cell viability, CellTiter-Glo ATP, 48 h; series mostly up to 45.8 µM
Results filed as inconclusive are left out. Calls of active or inactive are those of the source. The call rests on the fitted dose curve; in most records, active means well fitted cell-killing curve with a large enough effect; inconclusive means small, poorly fitted or top-dose-only effect, or effect the other way; inactive means no such curve, though single readings can be large or run the other way.
The reply should name one outcome from active, inactive

I would be grateful if you could indicate the recorded call for `Nc1nnc(-c2cccc(Cl)c2Cl)c(N)n1` .
inactive

Can you handle `Cc1ccc(C(=O)Nc2ccc(S(=O)(=O)O)c3cc(S(=O)(=O)O)cc(S(=O)(=O)O)c23)cc1NC(=O)c1cccc(NC(=O)Nc2cccc(C(=O)Nc3cc(C(=O)Nc4ccc(S(=O)(=O)O)c5cc(S(=O)(=O)O)cc(S(=O)(=O)O)c45)ccc3C)c2)c1` next?
inactive

Can you handle `Clc1ccc2nsnc2c1NC1=NCCN1` next?
inactive

Can you handle CC(C)(Oc1ccc(C2CC2(Cl)Cl)cc1)C(=O)O (stereo not given) next?
inactive

Can you handle `NCCS(=O)(=O)O` next?
inactive

Can you handle `O=C(c1ccc(F)cc1)C1CCN(CCn2c(=O)[nH]c3ccccc3c2=O)CC1` next?
inactive

Can you handle `CN1CCN(CCCN2c3ccccc3Sc3ccc(Cl)cc32)CC1` next?
active

Can you handle `CS(=O)(=O)Nc1ccc([N+](=O)[O-])cc1Oc1ccccc1` next?
inactive

Can you handle CC1COc2c(N3CCN(C)CC3)c(F)cc3c(=O)c(C(=O)O)cn1c23 (stereo not given) next?
inactive

Can you handle `CN1CCN(C2=Nc3cc(Cl)ccc3Nc3ccccc32)CC1` next?
inactive

Can you handle `N[C@@H](Cc1c[nH]c2ccc(O)cc12)C(=O)O` next?
inactive

Can you handle `CN(C)C(=N)N=C(N)N` next?
inactive

Can you handle `COc1ccc2[nH]cc(CCNC(C)=O)c2c1` next?
inactive

Can you handle `O=c1c(-c2ccc(O)cc2)coc2cc(O)cc(O)c12` next?
inactive

Can you handle `CN(C)CCC=C1c2ccccc2C=Cc2ccccc21` next?
inactive

Can you handle `O=C1c2c(O)ccc(O)c2C(=O)c2c(NCCNCCO)ccc(NCCNCCO)c21` next?
active

Can you handle `NC(=O)NO` next?
active

Can you handle `CN1CCC(=C2c3ccccc3CC(=O)c3sccc32)CC1` next?
active

Can you handle `Cc1cc(C(C)(C)C)cc(C)c1CC1=NCCN1` next?
inactive

Can you handle `CCOC(=O)Nc1ccc(NCc2ccc(F)cc2)nc1N` next?
inactive

Can you handle `NCCc1cnc[nH]1` next?
active

Can you handle `CN(CCOc1ccc(NS(C)(=O)=O)cc1)CCc1ccc(NS(C)(=O)=O)cc1` next?
inactive

Can you handle COc1cc2nc(N(C)CCCNC(=O)C3CCCO3)nc(N)c2cc1OC (stereo not given) next?
inactive

Can you handle Cc1ccccc1N1C(=O)c2cc(S(N)(=O)=O)c(Cl)cc2NC1C (stereo not given) next?
inactive

Can you handle `CC1(C)O[C@H]2CC(=O)OC[C@]23[C@H]2CC[C@@]4(C)[C@H](c5ccoc5)OC(=O)[C@H]5O[C@]54[C@]2(C)C(=O)C[C@@H]13` next?
inactive

Can you handle `CN1C(C(=O)Nc2ccccn2)=C(O)c2ccccc2S1(=O)=O` next?
inactive

Can you handle COc1ccc(C2CNC(=O)C2)cc1OC1CCCC1 (stereo not given) next?
inactive

Can you handle `Cc1cn([C@H]2C=C[C@@H](CO)O2)c(=O)[nH]c1=O` next?
inactive

Can you handle `Cc1ccc(-c2cc(C(F)(F)F)nn2-c2ccc(S(N)(=O)=O)cc2)cc1` next?
inactive

Can you handle `Cn1c(=O)c2c(ncn2C)n(C)c1=O` next?
inactive

Can you handle CC(CCc1ccc(O)cc1)NCCc1ccc(O)c(O)c1 (stereo not given) next?
active

Can you handle `CC[N+](CC)(CC)CCOc1cccc(OCC[N+](CC)(CC)CC)c1OCC[N+](CC)(CC)CC` next?
inactive

Can you handle `CC[C@@]1(O)C(=O)OCc2c1cc1n(c2=O)Cc2cc3c(CN(C)C)c(O)ccc3nc2-1` next?
active

Can you handle `Cn1ccc2cc3c(cc21)CCN3C(=O)Nc1cccnc1` next?
inactive

Can you handle `O=C(Nc1ccc([N+](=O)[O-])cc1Cl)c1cc(Cl)ccc1O` next?
active

* * *

test system: CP265; experiment: qHTS profiling for inhibitors of Plasmodium falciparum proliferation (AID 504749); further: nearly all actives have a fitted effect of over 60% in size; conditions: P. falciparum in erythrocytes, SYBR Green DNA, 72 h; series mostly up to 28.7 µM
Records with an inconclusive call do not appear. The source made the active and inactive calls. Calls come from the whole dose curve; as a rule, active = well fitted inhibition curve with a large enough effect; inconclusive = small, poorly fitted or top-dose-only effect; inactive = flat fitted curve, though single readings scatter.
The reply should name one outcome from active, inactive

I would be grateful if you could indicate the recorded call for CC(C)Cc1ccc(C(C)C(=O)O)cc1 (stereo not drawn) .
inactive

Can you handle `COc1ccc2[nH]cc(CCNC(C)=O)c2c1` next?
inactive

Can you handle `CCOC(=O)C(C)(C)Oc1ccc(Cl)cc1` next?
inactive

Can you handle `Cc1ccc(C(=O)Nc2ccc(S(=O)(=O)O)c3cc(S(=O)(=O)O)cc(S(=O)(=O)O)c23)cc1NC(=O)c1cccc(NC(=O)Nc2cccc(C(=O)Nc3cc(C(=O)Nc4ccc(S(=O)(=O)O)c5cc(S(=O)(=O)O)cc(S(=O)(=O)O)c45)ccc3C)c2)c1` next?
inactive

Can you handle CC(C)NCC(O)c1ccc(O)c(O)c1 (stereo not drawn) next?
inactive

Can you handle `Cc1cn([C@H]2C=C[C@@H](CO)O2)c(=O)[nH]c1=O` next?
inactive

Can you handle `Cn1cnc2c1c(=O)[nH]c(=O)n2C` next?
inactive

Can you handle COc1ccccc1N1CCN(CC(O)COc2cccc3ccccc23)CC1 (stereo not drawn) next?
inactive

Can you handle `CS(=O)(=O)Nc1ccc([N+](=O)[O-])cc1Oc1ccccc1` next?
inactive

Can you handle COc1ccccc1OCC(O)CN1CCN(CC(=O)Nc2c(C)cccc2C)CC1 (stereo not drawn) next?
inactive

Can you handle `Clc1ccc2nsnc2c1NC1=NCCN1` next?
inactive

Can you handle CCCNCC(O)COc1ccccc1C(=O)CCc1ccccc1 (stereo not drawn) next?
active

Can you handle `COC(=O)Nc1nc2ccc(C(=O)c3cccs3)cc2[nH]1` next?
inactive

Can you handle `Nc1nc2c(ncn2COC(CO)CO)c(=O)[nH]1` next?
inactive

Can you handle `N[C@@H](Cc1c[nH]c2ccc(O)cc12)C(=O)O` next?
inactive

Can you handle `Cc1cnc(C(=O)NCCc2ccc(S(=O)(=O)NC(=O)NC3CCCCC3)cc2)cn1` next?
inactive

Can you handle `CCC1(c2ccccc2)C(=O)NCNC1=O` next?
inactive

Can you handle CN1CCN2c3ccccc3Cc3ccccc3C2C1 (stereo not drawn) next?
inactive

Can you handle `COc1cc2c(c(OC)c1OC)-c1ccc(OC)c(=O)cc1[C@@H](NC(C)=O)CC2` next?
inactive

Can you handle `CC[C@@]1(O)C(=O)OCc2c1cc1n(c2=O)Cc2cc3c(CN(C)C)c(O)ccc3nc2-1` next?
active

Can you handle `Clc1ccccc1C(c1ccccc1)(c1ccccc1)n1ccnc1` next?
active

Can you handle `CCOC(=O)c1ncn2c1CN(C)C(=O)c1cc(F)ccc1-2` next?
inactive

Can you handle `C[C@](N)(Cc1ccc(O)c(O)c1)C(=O)O` next?
inactive

* * *

assay: Nrf2 qHTS screen for inhibitors: Validation (AID 493153); settings: A549 ARE-Fluc reporter, 18-24 h; measured here: cytotoxicity max response
Records with an inconclusive call do not appear.
observable: viability change (%)
Note: unit % is implicit; provide only the numeric part.

Dear colleague, I am looking for the recorded viability change of the following molecule: CC(C(=O)O)c1cccc(C(=O)c2ccccc2)c1 (stereo not drawn)
-3.76

Can you handle `COc1cc2nc(N3CCN(C(=O)c4ccco4)CC3)nc(N)c2cc1OC` next?
-4.77

Can you handle `OCCN1CCN(CCCN2c3ccccc3Sc3ccc(C(F)(F)F)cc32)CC1` next?
1.55

Can you handle `Nc1nc2c(ncn2COC(CO)CO)c(=O)[nH]1` next?
2.85

Can you handle CCC1(C)CC(=O)NC1=O (stereo not drawn) next?
4.35

Can you handle `O=c1c(O)c(-c2ccc(O)c(O)c2)oc2cc(O)cc(O)c12` next?
-9.26

Can you handle CC(C)NCC(O)COc1ccc(CCOCC2CC2)cc1 (stereo not drawn) next?
-1.98

Can you handle `CCOC(=O)c1ncn2c1CN(C)C(=O)c1cc(F)ccc1-2` next?
2.56

Can you handle `Nc1nnc(-c2cccc(Cl)c2Cl)c(N)n1` next?
-4.23

Can you handle CN1CCN2c3ccccc3Cc3ccccc3C2C1 (stereo not drawn) next?
-3.01

Can you handle `Cn1ccc2cc3c(cc21)CCN3C(=O)Nc1cccnc1` next?
-2.16

Can you handle `Cc1cn([C@H]2C=C[C@@H](CO)O2)c(=O)[nH]c1=O` next?
0.63

Can you handle CC1COc2c(N3CCN(C)CC3)c(F)cc3c(=O)c(C(=O)O)cn1c23 (stereo not drawn) next?
6.09

Can you handle `COc1ccc2[nH]cc(CCNC(C)=O)c2c1` next?
-12.9

Can you handle `Cn1c(=O)c2c(ncn2C)n(C)c1=O` next?
-2.67

Can you handle COc1cc2nc(N(C)CCCNC(=O)C3CCCO3)nc(N)c2cc1OC (stereo not drawn) next?
-7.87

Can you handle `Cc1cn([C@H]2C[C@H](N=[N+]=[N-])[C@@H](CO)O2)c(=O)[nH]c1=O` next?
8.03

Can you handle `CC12CC3CC(C)(C1)CC(N)(C3)C2` next?
-3.89

Can you handle `Nc1ccn([C@H]2CC[C@@H](CO)O2)c(=O)n1` next?
-1.24

Can you handle COc1ccccc1OCCNCC(O)COc1cccc2[nH]c3ccccc3c12 (stereo not drawn) next?
-0.159

Can you handle COc1ccccc1N1CCN(CC(O)COc2cccc3ccccc23)CC1 (stereo not drawn) next?
-28.8

Can you handle `CN(C)c1nc(N(C)C)nc(N(C)C)n1` next?
0

Can you handle COc1ccc(C2CNC(=O)C2)cc1OC1CCCC1 (stereo not drawn) next?
3.91

Can you handle `NS(=O)(=O)c1cc2c(cc1Cl)NCNS2(=O)=O` next?
-1.09

Can you handle `Cc1ccc(C(=O)Nc2ccc(S(=O)(=O)O)c3cc(S(=O)(=O)O)cc(S(=O)(=O)O)c23)cc1NC(=O)c1cccc(NC(=O)Nc2cccc(C(=O)Nc3cc(C(=O)Nc4ccc(S(=O)(=O)O)c5cc(S(=O)(=O)O)cc(S(=O)(=O)O)c45)ccc3C)c2)c1` next?
-15.2

Can you handle `CCC1(c2ccccc2)C(=O)NCNC1=O` next?
0.001

Can you handle `COc1nc(C)nc(Cl)c1NC1=NCCN1` next?
4.38

Can you handle `NC(=O)NO` next?
-1.36
